Reference source: patent US12077503B2

System: giant foxtail (Setaria faberii)
Assay: Test A postemergence
Format: in vivo
Conditions: Setaria faberi, post-emergence, 240 h, 125 g ai/ha, postemergence, visual injury vs untreated controls after approx. 10 d; 0 = no effect, 100 = complete control; read-out: Foxtail, Giant plant response rating (0 to 100 scale)
Description: […]
Reported pest or weed control at 125 g/ha is given for each of the following molecules.
Give just the number in %; leave the unit off.

# count of solved cases: 2
- MOLECULE: "O=C1NC[C@H](c2nccs2)[C@H]1C(=O)Nc1ccccc1F [Compound 1181]"
  READOUT_KIND: "pest or weed control at 125 g/ha"
  QUANTITATIVE_RESULT: 0
- MOLECULE: "CN1C[C@H](c2cccc(C(F)(F)F)c2)[C@@H](C(=O)Nc2ccccc2CCO)C1=O (racemic) [Compound 1162]"
  READOUT_KIND: "pest or weed control at 125 g/ha"
  QUANTITATIVE_RESULT: 40

With those in mind, consider the next molecule.
Param item = O=C1NC[C@H](c2cccc(I)c2)[C@H]1C(=O)Nc1ccccc1F [Compound 1160] ; retrieve measured pest or weed control at 125 g/ha.
80

###

Test system: barnyardgrass (Echinochloa crus-galli)
Experiment: Test G Pre-Emergence Protocol
Type: in vivo
Details: Echinochloa crus-galli, pre-emergence, 312 h, 15.625 g ai/ha, evaluated after 13 days, read-out: Barnyardgrass damage rating (100=total damage to plant; 0=no damage to plant)
READOUT_KIND: pest or weed control at 15.625 g/ha (%)
Give just the number in %; leave the unit off.

# count of solved cases: 5
- MOLECULE: "CN1C[C@H](c2cccc(C(F)(F)F)c2)[C@@H](C(=O)Nc2cccc(F)n2)C1=O (racemic)"
  TGT: "barnyardgrass (Echinochloa crus-galli)"
  UNIT_NAME: "%"
  pest or weed control at 15.625 g/ha: 70
- MOLECULE: "CN1CC(c2ccc(Cl)c([N+](=O)[O-])c2)C(C(=O)Nc2cccc(F)c2F)C1=O (stereo not shown)"
  TGT: "barnyardgrass (Echinochloa crus-galli)"
  UNIT_NAME: "%"
  pest or weed control at 15.625 g/ha: 30
- MOLECULE: "CN1CC(c2cc(C#N)cc(OC(F)(F)F)c2)C(C(=O)Nc2cccc(F)c2F)C1=O (stereo not shown)"
  TGT: "barnyardgrass (Echinochloa crus-galli)"
  UNIT_NAME: "%"
  pest or weed control at 15.625 g/ha: 0
- MOLECULE: "CCOc1cc([C@@H]2CN(C)C(=O)[C@H]2C(=O)Nc2cccc(F)c2C)ccc1F (racemic)"
  TGT: "barnyardgrass (Echinochloa crus-galli)"
  UNIT_NAME: "%"
  pest or weed control at 15.625 g/ha: 20
- MOLECULE: "CC(C)S(=O)(=O)c1ccccc1NC(=O)[C@H]1C(=O)N(C)C[C@@H]1c1ccc(C(F)(F)F)cc1 (racemic)"
  TGT: "barnyardgrass (Echinochloa crus-galli)"
  UNIT_NAME: "%"
  pest or weed control at 15.625 g/ha: 0

Param item = CN1C[C@H](c2cccc(C(F)(F)F)c2)[C@@H](C(=O)Nc2c(O)cccc2F)C1=O (racemic) ; retrieve measured pest or weed control at 15.625 g/ha.
0

Param item = CN1C[C@@H](c2ccc(C(F)(F)F)cc2)[C@H](C(=O)Nc2cscn2)C1=O (racemic) ; retrieve measured pest or weed control at 15.625 g/ha.
0

Param item = CN1C[C@H](c2ccc(C(F)(F)F)cc2)[C@@H](C(=O)Nc2cnccc2[S+](C)[O-])C1=O (mixture of isomers) ; retrieve measured pest or weed control at 15.625 g/ha.
0

Param item = COC(=O)c1cc([C@H]2CN(C)C(=O)[C@@H]2C(=O)Nc2cccc(F)c2F)ccc1C (racemic) ; retrieve measured pest or weed control at 15.625 g/ha.
60

Param item = Cc1cc(C2CN(C)C(=O)C2C(=O)Nc2cccc(F)c2F)cc(C(F)(F)F)c1 (stereo not shown) ; retrieve measured pest or weed control at 15.625 g/ha.
10

###

System: ducksalad (Heteranthera limosa)
Experiment: Test B flooded paddy test
Type: in vivo
Details: Heteranthera limosa, Flood, 250 g ai/ha; scale of 0 to 100 where 0 is no effect and 100 is complete control; read-out: Ducksalad plant response rating
READOUT_KIND: pest or weed control at 250 g/ha

# count of solved cases: 2
- TEST_SMILES: "COc1c(F)ccc([C@H]2CN(C)C(=O)[C@@H]2C(=O)Nc2cccc(F)c2F)c1Cl"
  READOUT_KIND: "pest or weed control at 250 g/ha"
  RESULT: "90%"
- TEST_SMILES: "CN1C[C@H](c2ccc(C(F)(F)F)c(Br)c2)[C@@H](C(=O)Nc2cccc(F)c2F)C1=O"
  READOUT_KIND: "pest or weed control at 250 g/ha"
  RESULT: "80%"

Query the reported pest or weed control at 250 g/ha for ducksalad (Heteranthera limosa); item: Cc1ccc([C@H]2CN(C)C(=O)[C@@H]2C(=O)Nc2ccccc2S(C)(=O)=O)cc1C
100%

###

System: ducksalad (Heteranthera limosa)
Test: Test B flooded paddy test
Assay type: in vivo
Conditions: Heteranthera limosa, 250 g ai/ha, Flood; 0 to 100 scale where 0 is no effect and 100 is complete control; read-out: Ducksalad plant response rating
Use 90% as the dividing line for pest or weed control at 250 g/ha, with the line itself on the Criterion met side and lower values as Criterion not met.

Here are 6 compounds together with their reported answers.
- COMPOUND: "CN1CC[C@H](c2ccccc2C(F)(F)F)[C@@H](C(=O)Nc2ccccc2C(F)(F)F)C1=O [Compound 1008]"
  TGT: "ducksalad (Heteranthera limosa)"
  LABEL: "Criterion met"
- COMPOUND: "O=C1NCC(c2ccccc2OC(F)(F)C(F)F)C1C(=O)Nc1cccc(F)c1F (centres unmarked) [Compound 1054]"
  TGT: "ducksalad (Heteranthera limosa)"
  LABEL: "Criterion not met"
- COMPOUND: "COc1cc([C@H]2CN(C)C(=O)[C@@H]2C(=O)Nc2cccc(F)c2C)ccc1F [Compound 1300]"
  TGT: "ducksalad (Heteranthera limosa)"
  LABEL: "Criterion not met"
- COMPOUND: "O=C(Nc1cccc(F)c1F)C1C(=O)N(CC(F)F)CC1c1cccc(C(F)(F)F)c1 (centres unmarked) [Compound 1294]"
  TGT: "ducksalad (Heteranthera limosa)"
  LABEL: "Criterion not met"
- COMPOUND: "CN1C[C@H](c2ccc(C#N)c(F)c2)[C@@H](C(=O)Nc2cccc(F)c2F)C1=O [Compound 1192]"
  TGT: "ducksalad (Heteranthera limosa)"
  LABEL: "Criterion met"
- COMPOUND: "CN1C[C@H](c2ccc3c(c2)CCO3)[C@@H](C(=O)Nc2cccc(F)c2F)C1=O [Compound 1324]"
  TGT: "ducksalad (Heteranthera limosa)"
  LABEL: "Criterion not met"

Shift focus to the following entry.
Threshold query (pest or weed control at 250 g/ha >= 90%) on Cn1ccc2ccc([C@H]3CNC(=O)[C@@H]3C(=O)Nc3ccccc3F)cc21 [Compound 1264]
Criterion not met

###

System: barnyardgrass (Echinochloa crus-galli)
Assay: Test B flooded paddy test
Assay type: in vivo
Settings: Echinochloa crus-galli, 250 g ai/ha, Flood; 0 to 100 scale where 0 is no effect and 100 is complete control; read-out: Barnyardgrass plant response rating
READOUT_KIND: pest or weed control at 250 g/ha (%)
Give just the number in %; leave the unit off.

# count of solved cases: 2
- MOLECULE: "CN1C[C@H](c2cccc(C(C)(F)F)c2)[C@@H](C(=O)Nc2ccc(F)cc2F)C1=O"
  QUANTITATIVE_RESULT: 90
- MOLECULE: "CC(O)c1ccccc1NC(=O)C1C(=O)N(C)CC1c1cccc(C(F)(F)F)c1 (stereo not drawn)"
  QUANTITATIVE_RESULT: 0

Param item = O=C1NCC(c2ccccc2OC(F)(F)C(F)F)C1C(=O)Nc1cccc(F)c1F (stereo not drawn) ; retrieve measured pest or weed control at 250 g/ha.
0

###

Reported Plant response rating, Pigweed is given for each of the following compounds.
Test system: pigweed (Amaranthus retroflexus)
Assay: Test A preemergence
Format: in vivo
Conditions: 125 g ai/ha, Preemergence; visual injury after approximately 10 d; 0 to 100 scale where 0 is no effect and 100 is complete control
Please state the value as a number alone, without comment.

# count of solved cases: 3
- COMPOUND: "CC(C)c1ccc(C2CNC(=O)C2C(=O)Nc2cccc(F)c2F)cc1 (stereo not drawn) [Compound 470]"
  TGT: "pigweed (Amaranthus retroflexus)"
  Plant response rating, Pigweed: 0
- COMPOUND: "CN1CC(c2cccc(C(F)(F)F)c2)C(C(=O)Nc2ccccc2[N+](=O)[O-])C1=O (stereo not drawn) [Compound 572]"
  TGT: "pigweed (Amaranthus retroflexus)"
  Plant response rating, Pigweed: 40
- COMPOUND: "O=C(Nc1cccc(F)c1F)C1C(=O)N(CC=CBr)CC1c1cccc(C(F)(F)F)c1 (stereo not drawn) [Compound 486]"
  TGT: "pigweed (Amaranthus retroflexus)"
  Plant response rating, Pigweed: 0

Query the reported Plant response rating, Pigweed for pigweed (Amaranthus retroflexus); item: O=C(Nc1ccccc1F)C1C(=O)N(CC=CBr)CC1c1cccc(C(F)(F)F)c1 (stereo not drawn) [Compound 484]
0

Query the reported Plant response rating, Pigweed for pigweed (Amaranthus retroflexus); item: O=C1NCC(c2cccc(F)c2F)C1C(=O)Nc1ccccc1F (stereo not drawn) [Compound 494]
0

Query the reported Plant response rating, Pigweed for pigweed (Amaranthus retroflexus); item: C=C(C)CN1CC(c2cccc(C(F)(F)F)c2)C(C(=O)Nc2ccccc2F)C1=O (stereo not drawn) [Compound 481]
0
